test: total protein half-life in vivo (active degradation + dilution); higher = more stable protein; settings: wild type E. coli NCM3722; growth: C-lim chemostat; doubling time 12 h

Residue Sequence	Endpoint Unit	total protein half-life in vivo
MERFDAIIIGAGAAGMFCSALAGQAGRRVLLIDNGKKPGRKILMSGGGRCNFTNLYVEPGAYLSQNPHFCKSALARFTQWDFIDLVNKHGIAWHEKTLGQLFCDDSAQQIVDMLVDECEKGNVTFRLRSEVLSVAKDETGFTLDLNGMTVGCEKLVIATGGLSMPGLGASPFGYKIAEQFGLNVLPTRAGLVPFTLHKPLLEELQVLAGVAVPSVITAENGTVFRENLLFTHRGLSGPAVLQISSYWQPGEFVSINLLPDVDLETFLNEQRNAHPNQSLKNTLAVHLPKRLVERLQQLGQIPDVSLKQLNVRDQQALISTLTDWRVQPNGTEGYRTAEVTLGGVDTNELSSRTMEARKVPGLYFIGEVMDVTGWLGGYNFQWAWSSAWACAQDLIAAKSS	h	12.3
MIENRPWLTIFSHTMLILGIAVILFPLYVAFVAATLDKQAVYAAPMTLIPGTHLLENIHNIWVNGVGTNSAPFWRMLLNSFVMAFSITLGKITVSMLSAFAIVWFRFPLRNLFFWMIFITLMLPVEVRIFPTVEVIANLQMLDSYAGLTLPLMASATATFLFRQFFMTLPDELVEAARIDGASPMRFFCDIVFPLSKTNLAALFVITFIYGWNQYLWPLLIITDVDLGTTVAGIKGMIATGEGTTEWNSVMVAMLLTLIPPVVIVLVMQRAFVRGLVDSEK	h	14.5

---

// reported total protein half-life in vivo per item
assay: total protein half-life in vivo (active degradation + dilution); higher = more stable protein; settings: wild type E. coli NCM3722; growth: C-lim chemostat; doubling time 12 h

Residue Sequence	Endpoint Unit	total protein half-life in vivo
MSNITIYHNPACGTSRNTLEMIRNSGTEPTIIHYLETPPTRDELVKLIADMGISVRALLRKNVEPYEELGLAEDKFTDDRLIDFMLQHPILINRPIVVTPLGTRLCRPSEVVLEILPDAQKGAFSKEDGEKVVDEAGKRLK [P0AB96]	h	8.79
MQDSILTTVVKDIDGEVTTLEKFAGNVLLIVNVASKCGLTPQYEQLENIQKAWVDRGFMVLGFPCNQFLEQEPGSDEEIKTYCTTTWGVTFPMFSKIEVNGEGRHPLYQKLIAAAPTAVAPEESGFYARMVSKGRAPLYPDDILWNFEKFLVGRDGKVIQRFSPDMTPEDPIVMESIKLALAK	h	7.87

---

experiment: total protein half-life in vivo (active degradation + dilution); higher = more stable protein; settings: E. coli NCM3722 delta-clpP; growth: N-lim chemostat; doubling time 6 h
// reported total protein half-life in vivo per item

Residue Sequence	Relation Operator	total protein half-life in vivo, h
MKFKVIALAALMGISGMAAQANELPDGPHIVTSGTASVDAVPDIATLAIEVNVAAKDAATAKKQADERVAQYISFLELNQIAKKDISSANLRTQPDYDYQDGKSILKGYRAVRTVEVTLRQLDKLNSLLDGALKAGLNEIRSVSLGVAQPDAYKDKARKAAIDNAIHQAQELANGFHRKLGPVYSVRYHVSNYQPSPMVRMMKADAAPVSAQETYEQAAIQFDDQVDVVFQLEPVDQQPAKTPAAQ [P0ADS6]	=	6.67
MSNAQEAVKTRHKETSLIFPVLALVVLFLWGSSQTLPVVIAINLLALIGILSSAFSVVRHADVLAHRLGEPYGSLILSLSVVILEVSLISALMATGDAAPTLMRDTLYSIIMIVTGGLVGFSLLLGGRKFATQYMNLFGIKQYLIALFPLAIIVLVFPMALPAANFSTGQALLVALISAAMYGVFLLIQTKTHQSLFVYEHEDDSDDDDPHHGKPSAHSSLWHAIWLIIHLIAVIAVTKMNASSLETLLDSMNAPVAFTGFLVALLILSPEGLGALKAVLNNQVQRAMNLFFGSVLATISLTVPVVTLIAFMTGNELQFALGAPEMVVMVASLVLCHISFSTGRTNVLNGAAHLALFAAYLMTIFA	>	8
MNEQSQAKSPEALRAMVAGTLANFQHPTLKHNLTTLKALHHVAWMDDTLHVELVMPFVWHSAFEELKEQCSAELLRITGAKAIDWKLSHNIATLKRVKNQPGINGVKNIIAVSSGKGGVGKSSTAVNLALALAAEGAKVGILDADIYGPSIPTMLGAENQRPTSPDGTHMAPIMSHGLATNSIGYLVTDDNAMVWRGPMASKALMQMLQETLWPDLDYLVLDMPPGTGDIQLTLAQNIPVTGAVVVTTPQDIALIDAKKGIVMFEKVEVPVLGIVENMSVHICSNCGHHEPIFGTGGAEKLAEKYHTQLLGQMPLHISLREDLDKGTPTVISRPESEFTAIYRQLADRVAAQLYWQGEVIPGEISFRAV [P0AF08]	=	4.45

Where these numbers come from: the supplement of paper PMC11246515
